assay: Stability on storage under severe conditions at 60° C. in the air (remaining tetrahydrofolic acid content by HPLC, colour); assay type: physicochemical; settings: 21 days at 60° C. in air
MEASUREMENT_LABEL: Remaining tetrahydrofolic acid content in comparison with the initial value (%)
Answer in %, number only, no unit symbol.

Sample answers from the record:
>  <COMPOUND>
Nc1nc2c(c(=O)[nH]1)N[C@@H](CNc1ccc(C(=O)N[C@@H](CCC(=O)O)C(=O)O)cc1)CN2 [Amorphous (6S)-tetrahydrofolic acid, (6S)-tetrahydrofolic acid]

>  <EXPERIMENTAL_RESULT>
7.9

$$$$
>  <COMPOUND>
Nc1nc2c(c(=O)[nH]1)N[C@@H](CNc1ccc(C(=O)N[C@@H](CCC(=O)O)C(=O)O)cc1)CN2 [Crystalline (6S)-tetrahydrofolic acid, (6S)-tetrahydrofolic acid]

>  <EXPERIMENTAL_RESULT>
103.6

$$$$
>  <COMPOUND>
Nc1nc2c(c(=O)[nH]1)N[C@H](CNc1ccc(C(=O)N[C@@H](CCC(=O)O)C(=O)O)cc1)CN2 (mixture of isomers) [amorphous (6R,S)-tetrahydrofolic acid, (6R,S)-tetrahydrofolic acid]

>  <EXPERIMENTAL_RESULT>
13.2

$$$$

# input Can you look up the measured Remaining tetrahydrofolic acid content in comparison with the initial value of Nc1nc2c(c(=O)[nH]1)N[C@H](CNc1ccc(C(=O)N[C@@H](CCC(=O)O)C(=O)O)cc1)CN2 [amorphous (6R)-tetrahydrofolic acid, (6R)-tetrahydrofolic acid] for me?
# output 21.6

# input # Remaining tetrahydrofolic acid content in comparison with the initial value lookup, item Nc1nc2c(c(=O)[nH]1)N[C@H](CNc1ccc(C(=O)N[C@@H](CCC(=O)O)C(=O)O)cc1)CN2 [Yamanouchi's crystalline (6R,S)-tetrahydrofolic acid]
# output 31.0
